Sourced from patent US4385055A

- Tested on: Group D Enterococcus
- MEASUREMENT DESCRIPTION: Macro broth dilution MIC, Group D Enterococcus isolates (Test 1)
- Assay type: cell-based
- TEST SETTINGS: 24 h, Group D Enterococcus isolate IV, read after 24 hours, read-out: Minimum Inhibitory Concentration
MEASURE: MIC
The answer should read as a number with its unit following.

Below, each entry is followed by its recorded MIC result.
CHEMICAL STRING	MIC
CC(=NNC(=S)NC(C)(C)CC(C)(C)C)c1ccccn1	4 µg/mL
CC(=NNC(=S)N1CC2CCC(CC2)C1)c1ccccn1	2 µg/mL
CC(=NNC(=S)N(CC(C)C)CC(C)C)c1ccccn1	4 µg/mL
CC(=NNC(=S)N1CCCCCC1)c1ccccn1	4 µg/mL

Retrieve MIC measured for CC(=NNC(=S)NC12CC3CC(CC(C3)C1)C2)c1ccccn1 and print it.
2 µg/mL
